- EXPERIMENT SUMMARY: label from the status in PepcDB records

SEQ STRING: MIEENYKEERYTERVNQGGVWGSFKRKFLSWADDDAGYDEEKDYENLLNNEKLQKKLREWRRTKNQQNNNKTFNTNDTNSFETIQSVIAEQLNVDAVQVTPEAEFVKDLGADSDVVELIMALEEKFGIEIPDEQAEKIVNVGDVMRYIEKQLI
protein production: failed
--
SEQ STRING: STTEEESLSAAEEGYNVQRDYWRQAEESDGFDIENIKLPPGMHGRVMGLITYNCQLCYRYPFPVLVKLYAKFGLHRYNLIKGTSFELAALMKFNMLQNYMSSFYMTLLAHDPDPAASSSQKTFQVRVDEQQFGTLGINCSIARPKHEGDLLEVSTKTPFIPHFHGGALGDGIFKGELPDCLSDDALNALMEAVSKDELPEHVLDDALYARAGGIFQGELPDWPSDDALNDGKRFYMLKESEWQATDWISMYLELVITTTDRSITEPEVLSKLEIVKVAIETATKDEEPSNERLKAYRAHFYITFKGLAEPRAPRQVFEIGEHVERQAIVRRVMGHRGDLTLKGKLCGGQYIKRRSLALKSGEESPNCKKQTRVG
protein production: failed
